Documented RAM network inhibition across a set of compounds
# PROTOCOL NOTES: RAM signaling pathway blockade in yeast – S. cerevisiae, Pdr1DBD-CYC8 efflux-inhibited sensitized strain, primary screen (AID 1298);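 further: 0% = DMSO untreated cells without growth and 100% = 10 µM 1-NA-PP1 full growth; higher means more yeast growth rescued from 5-FOA killing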
# RUN CONDITIONS: S. cerevisiae cbk1-as DSE1-URA3 strain, 5-FOA growth OD615, 2 d; at 50 µM; stronger effect = higher value
Calls of active or inactive are those of the source.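 How the source made its calls: active means RAM network inhibition above 8.4% in each of two replicates, 3 SD over the compound average; inconclusive means above 8.4% inhibition in only one replicate; inactive means 8.4% inhibition or less in each replicate.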
METRIC NAME: RAM network inhibition

compound="CC1CCc2nn(CC(=O)N3CCN(C(=O)c4ccco4)CC3)cc2C1 (stereo unspecified)" reported="7.21% (inactive)"
compound="Cc1noc(C)c1S(=O)(=O)N1CCN(C(c2ccccc2)c2ccc(Cl)cc2)CC1 (stereo unspecified)" reported="7.2% (inactive)"
compound="CC1CCC(NC(=O)Cn2ncc3ccccc32)CC1 (stereo unspecified)" reported="1.78% (inactive)"
compound=CC(C)c1ccc(OC(=O)NCCO)cc1 reported="4.79% (inactive)"
compound="COc1ccc(NC(=O)C2CCCN(S(=O)(=O)c3cccc4cccnc34)C2)cc1OC (stereo unspecified)" reported="2.55% (inactive)"
compound=Cc1c(C#N)c2ncnc(-c3ccccc3)c2n1-c1ccccc1 reported="5.06% (inactive)"
compound="CCOC(=O)C1CCCN(C(=O)Cc2c(C(=O)O)[nH]c3ccccc23)C1 (stereo unspecified)" reported="3.59% (inactive)"
compound=CCOC(=O)COn1c(=O)c(=O)n(O)c2ccccc21 reported="1.4% (inactive)"
compound="CC1CCCN(C(=O)CN2C(=O)c3ccccc3C2=O)C1 (stereo unspecified)" reported="0.38% (inactive)"
compound="CCC(C)NC(=O)c1cc(CC(C)C)on1 (stereo unspecified)" reported="2.69% (inactive)"
compound=Cc1cc(C)c(C(=O)Nc2ccc(S(=O)(=O)Nc3onc(C)c3C)cc2)c(C)c1 reported="10.4% (inactive)"
compound=O=C1N=C(N2CCOCC2)SC1=C1CCCCC1 reported="1.84% (inactive)"
compound=Cc1oc(-c2cccc(Cl)c2)nc1CN1CCC(C(=O)NCCCN2CCCC2=O)CC1 reported="2.35% (inactive)"
compound=Cc1cc(C)cc(N(CC(=O)Nc2cccc(C)n2)S(=O)(=O)c2c(C)noc2C)c1 reported="5.69% (inactive)"
compound=Cn1c(CSc2nc3ccccc3s2)nnc1SCC(=O)NCCN1CCOCC1 reported="3.17% (inactive)"
compound=Cc1sc2nc(CSc3nnc(Cc4cccs4)n3C3CCCCC3)[nH]c(=O)c2c1C reported="4.25% (inactive)"
compound="CC1(C)C(c2ccccc2)=NC(c2ccccc2)N1O (stereo unspecified)" reported="3.18% (inactive)"
compound=CCc1ccccc1NC(=O)c1cnc2n(c1=O)CCS2 reported="5.66% (inactive)"
compound=CCOc1ccc(N(CC(=O)NCc2cccs2)S(=O)(=O)c2c(C)noc2C)cc1 reported="6.62% (inactive)"
compound=CCCCc1nc2ccccc2n2cc3c(=O)n(C)c(=O)n(C)c3c12 reported="0.47% (inactive)"
compound="OC(COc1ccccc1)Cn1cc(Br)cn1 (stereo unspecified)" reported="0.93% (inactive)"

====

Documented growth inhibition across a set of compounds
# PROTOCOL NOTES: S. cerevisiae growth inhibition in restrictive medium, OD615, pilot screen, restrictive growth control, yeast lifespan reduction project (AID 706);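 further: modified DeaD lifespan yeast strain shifted to restrictive glucose medium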
# RUN CONDITIONS: OD615, 48 h, at 10 µM, stronger effect = higher value
METRIC NAME: growth inhibition (%)

compound=Cc1ccc(CSc2nc3c(c(=O)[nH]2)CCC3)cc1 unit_spec=% reported=-26.7
compound="CCOC(=O)C(CC)(CCC(=O)O)c1csc(N)n1 (stereo not given)" unit_spec=% reported=-9.94
compound="CC1=C(C(N)=O)C(c2cccc(O)c2)n2nc(CCCO)nc2N1 (stereo not given)" unit_spec=% reported=-1.35
compound="CCOC(=O)C(C)Sc1nnc(Cc2cc(=O)[nH]c(=O)[nH]2)n1-c1ccc(Cl)cc1 (stereo not given)" unit_spec=% reported=-11.5
compound=CCOC(=O)c1sc(/N=C/N(C)C)c(C(=O)OCC)c1C unit_spec=% reported=0.92
compound=Cc1c(NC(=O)c2ccc(CN3CCc4ccccc4C3)cc2)c(=O)n(-c2ccccc2)n1C unit_spec=% reported=-6.79
compound=CC(=O)NCCc1nc2ccccc2[nH]1 unit_spec=% reported=6.51
compound="O=C(NCc1cccnc1)NC1(C(F)(F)F)Oc2ccc(Cl)cc2O1 (stereo not given)" unit_spec=% reported=-8.97
compound=O=c1c2ccccc2nc(SCc2nc(-c3ccccc3)no2)n1-c1ccc(F)cc1 unit_spec=% reported=-3.72
compound="CCOC(=O)C1CCCN(C(=O)Cn2nc(CC)n3c(cc4sccc43)c2=O)C1 (stereo not given)" unit_spec=% reported=-9.06
compound=COc1ccc(NC(=O)c2cc(C3CC3)on2)c(OC)c1 unit_spec=% reported=9.96
compound=CCn1c(=O)c2cc(C(=O)NCc3cccs3)sc2c2ccccc21 unit_spec=% reported=-8.09
compound=COc1ccc(N(C)C(=O)CCS(=O)(=O)c2cccc3nonc23)c(OC)c1 unit_spec=% reported=-20.6
compound=COc1ccc(CCNC(=O)c2cc3sc(Cl)cc3n2C)cc1OC unit_spec=% reported=12.9
compound=CCc1ccc(C(=O)NC2CCCCC2)s1 unit_spec=% reported=3.24
compound="CN(C)CCCN1C(=O)c2oc3ccc(Cl)cc3c(=O)c2C1c1cccnc1 (stereo not given)" unit_spec=% reported=4.2
compound="COc1cc(C(O)c2nc3ccccc3n2C)cc(OC)c1OC (stereo not given)" unit_spec=% reported=-9.59
compound="COc1cc(C2N3CC4(C)CN2CC(C)(C3)C4)ccc1O (stereo not given)" unit_spec=% reported=1.65
compound="C=CCN1C(=O)c2oc3ccccc3c(=O)c2C1c1ccc(O)c(OC)c1 (stereo not given)" unit_spec=% reported=3.18
compound="CCC(C)Sc1nc2c(c(=O)n1C)SC(C)C2 (stereo not given)" unit_spec=% reported=7.98
compound="O=C1c2ccccc2S(=O)(=O)N1CC(O)Cn1c2ccccc2c2ccccc21 (stereo not given)" unit_spec=% reported=9.13
compound=COc1ccc(-c2nc(CCNC(=O)c3ccco3)cs2)cc1OC unit_spec=% reported=-8.75
compound="O=C(CC1Oc2ccc(Cl)cc2NC1=O)NC1CCCCCC1 (stereo not given)" unit_spec=% reported=-8.75
compound=COc1ccc(OC)c(NC(=O)c2nnn(Cc3ccc(Br)cc3F)c2N)c1 unit_spec=% reported=-7.43
compound=CCn1c(NC(=O)c2cccc(Cn3cc(Cl)cn3)c2)nc2ccccc21 unit_spec=% reported=7.82
compound=Cc1ccc(-c2nc(-c3ccccc3)no2)c(Cl)c1 unit_spec=% reported=-11.1
compound="Cc1ccc2c(c1)C(c1ccccc1)N(C(=O)c1ccc(Br)o1)CC(=O)N2 (stereo not given)" unit_spec=% reported=-8.66
compound="CCSc1nc2c(c(=O)[nH]1)C(c1cccnc1)C(C(=O)OC(C)C)=C(C)N2 (stereo not given)" unit_spec=% reported=-8.67
compound=CCCNc1nc(N2CCOCC2)nc(N2CCOCC2)n1 unit_spec=% reported=2.38
compound=COC(=O)c1sc(NC(=O)COc2ccccc2OC)nc1C unit_spec=% reported=-0.995

====

# PROTOCOL NOTES: RAM pathway blockade in budding yeast – dse1pr::URA3 reporter, 5-FOA selection, pilot screen (AID 869);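 further: 0% = DMSO wells with no growth and 100% = 10 µM 1-NA-PP1 with full growth; RAM network block rescues cells from 5-FOA so hits raise OD615 growth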
# RUN CONDITIONS: S. cerevisiae dse1pr::URA3 5-FOA growth, OD615, 2 d; at 10 µM; stronger effect = higher value; strain carries analog-sensitive mutant Cbk1 kinase
Documented inhibition across a set of molecules
METRIC NAME: inhibition (%)

molecule=COCc1nnc(NC(=O)c2ccc(S(=O)(=O)N(C)c3ccccc3)cc2)o1 reported=0.19
molecule=CCCS(=O)(=O)N1CCN(C(=O)c2cccnc2)CC1 reported=-0.345
molecule="CC(NC(=O)C1CCC1)c1ccc2c(c1)OCO2 (configuration not stated)" reported=1.67
molecule="COc1ccc(C(C)N2CC34C=CC(O3)C(C(=O)OCC(C)C)C4C2=O)cc1 (configuration not stated)" reported=1.82
molecule=CCOC(=O)Cn1c(CCC(=O)O)ccc1-c1ccc(F)cc1 reported=0.72
molecule="COc1cccc(C2=NOC(C(=O)Nc3cc(C)nn3-c3ccccc3)C2)c1OC (configuration not stated)" reported=2.12
molecule=CCOC(=O)Cn1c(=O)c(-c2ccccc2N)nc2ccccc21 reported=2.16
molecule="CN1C(=O)C(O)(CC(=O)c2ccc(F)cc2)c2cc(Br)ccc21 (configuration not stated)" reported=1.45
molecule=Cc1ccc(-c2cc(C(F)F)nc(NCc3cccnc3)n2)cc1 reported=1.65
molecule=O=C(c1nnc(Cc2ccc(Cl)cc2)o1)N1CCc2ccccc2C1 reported=0.135
molecule="COc1ccc(C2CC(=O)C(C=NCCCN3CCOCC3)=C(O)C2)cc1 (configuration not stated)" reported=2.07
molecule="COc1ccc(OC)c2sc(NC(=O)C3COc4ccccc4O3)nc12 (configuration not stated)" reported=-0.125

====

# PROTOCOL NOTES: Her2 expression decrease, cell viability multiplex – SKBR3 breast tumor cells, AlphaScreen, ATP viability, primary screen (AID 461);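 further: percent of carrier control wells set as 100% viability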
# RUN CONDITIONS: SKBR3 Her2 protein level, 18-24 h, measured here: SKBR3 viability, ATP luminescence, at 10 µM
METRIC NAME: viability (%)

compound=COc1ccc(OC)c(NC(=O)c2nnn(Cc3ccc(Br)cc3F)c2N)c1 unit_spec=% reported=80
compound=CCOC(=O)c1ccc2ncc(C(=O)OCC)c(NCCN(C)C)c2c1 unit_spec=% reported=84
compound="CCN(CC)CCCN1C(=O)C(O)=C(C(=O)c2ccco2)C1c1ccc(C)o1 (stereo not given)" unit_spec=% reported=102
compound="CCOc1ccc(C2CC(c3cccc(OC)c3)Nc3nc(N)nn32)cc1 (stereo not given)" unit_spec=% reported=91.5
compound=COc1ccc(-c2[nH]c(-c3cccc(OC)c3)nc2SCC(=O)NCc2ccco2)cc1 unit_spec=% reported=95.5
compound=O=C(Nc1ccncc1)c1cccc(F)c1 unit_spec=% reported=103
compound=COC(=O)Cn1c(CN2CCN(c3ccccc3F)CC2)nc2c1c(=O)n(C)c(=O)n2C unit_spec=% reported=104
compound="CC1(C)CC(=O)CC(C2(O)C(=O)N(Cc3ccccc3)c3ccccc32)O1 (stereo not given)" unit_spec=% reported=99.5
compound=COc1ccccc1NC(=O)N1CCN(c2cccc(C(F)(F)F)c2)CC1 unit_spec=% reported=89
compound="CC(=O)C1=C(C)Nc2ncnn2C1c1cccc(OCc2ccccc2)c1 (stereo not given)" unit_spec=% reported=102
compound=N#Cc1cc2c(nc1SCC(=O)N1CCCCC1)CCCC2 unit_spec=% reported=85
compound=O=C(CSc1nnc2ccccn12)c1ccccc1 unit_spec=% reported=99
compound="COc1ccc(C2CC(c3ccc(Cl)cc3Cl)Nc3nc(N)nn32)cc1 (stereo not given)" unit_spec=% reported=94
compound=COc1ccc(N2CCN(c3oc(COc4ccccc4Cl)nc3C#N)CC2)cc1 unit_spec=% reported=109
compound=COc1ccccc1Oc1ccc(S(=O)(=O)N2CCOCC2)cc1S(=O)(=O)N1CCOCC1 unit_spec=% reported=86.5
